# Tested on: human Notch 3
# test_name: Notch-CBF1 Transactivation Assay (luciferase reporter, transfected HeLa cells), Notch 3
# Type: cell-based
# details: read-out: Notch 3 (IC50); HeLa cells transfected with truncated Notch 3 and CBF1 luciferase reporter, 18 hours incubation
# Source text: Notch-CBF1 Transactivation Assay The Notch-CBF1 (C-promoter binding factor I) cell based transactivation assay is based on the ability of the released Notch intracellular domain fragments (NICDs) to function as transcription factors in conjunction with CBF1 and other nuclear factors. Luciferase assays were used to measure the antagonism of Notch-CBF1 transcriptional activity. […] Table 2 denotes respective DNA quantity for the transfections. […]
observation_type: pIC50
Answers are plain numbers, as −log10 of the molar value.

Fill in pIC50 for each of the 3 molecules listed.
1. NC(=O)[C@@H](c1ccccc1)[C@@H](CCC(F)(F)F)C(=O)N[C@H]1N=C(c2ccccc2)c2ccccc2N(c2ccc(Cl)cn2)C1=O [Example 22]
2. Cc1nocc1[C@H](C(N)=O)[C@@H](CCC(F)(F)F)C(=O)N[C@H]1N=C(c2ccccc2)c2ccccc2N(c2ccc(Cl)cn2)C1=O [Example 23]
3. NC(=O)[C@@H](c1cccnc1)[C@@H](CCC(F)(F)F)C(=O)N[C@H]1N=C(c2ccccc2)c2ccccc2NC1=O [Example 10]

1. 7.94
2. 7.86
3. 7.64

====

Field: pIC50. Provide a value for each of the molecules that follow.
# Tested on: human Notch 3
# test_name: Notch-CBF1 Transactivation Assay (luciferase reporter, transfected HeLa cells), Notch 3
# Type: cell-based
# details: read-out: Notch 3 (IC50); HeLa cells transfected with truncated Notch 3 and CBF1 luciferase reporter, 18 hours incubation
Answers are plain numbers, as −log10 of the molar value.

Solved entries:
1. Cc1cccc2c1NC(=O)[C@@H](NC(=O)[C@H](CCC(F)(F)F)[C@@H](C(N)=O)c1ccccc1)N=C2c1cccc(F)c1 :: 7.85
2. COc1cc(C#N)cc2c1NC(=O)[C@@H](NC(=O)[C@H](CCC(F)(F)F)[C@@H](C(N)=O)c1ccccc1)N=C2c1ccccc1 :: 7.72

Turning now to a further record.
So what does the record say about pIC50 for `Cc1cccc2c1NC(=O)[C@@H](NC(=O)[C@H](CCC(F)(F)F)[C@@H](C(N)=O)c1conc1C)N=C2c1ccc(F)cc1` ?
7.94

====

Kindly supply the reported half-life at 0.5 μM values for the records listed here.
# test_name: Human metabolic stability half-life assay (liver microsomes)
# Assay type: in vitro ADME
# details: pH 7.4, human liver microsomes, CYP-mediated (NADPH-dependent), 0.5 μM compound, 45-minute time course, read-out: HLM (t1/2, min)

Worked cases, answers included:
1. Cc1cccc2c1NC(=O)[C@@H](NC(=O)[C@H](CCC(F)(F)F)[C@@H](C(N)=O)c1conc1C)N=C2c1ccc(F)cc1 [Example 33] :: ≥ 30 min
2. Cc1nocc1[C@H](C(N)=O)[C@@H](CCC(F)(F)F)C(=O)N[C@H]1N=C(c2ccccc2)c2cc3c(cc2NC1=O)OCO3 [Example 13] :: ≥ 30 min
3. Cc1nocc1[C@H](C(N)=O)[C@@H](CCC(F)(F)F)C(=O)N[C@H]1N=C(c2ccccc2)c2ccccc2N(c2ccc(Cl)cn2)C1=O [Example 23] :: ≥ 30 min
4. CCCC[C@H](C(N)=O)[C@@H](CC(C)C)C(=O)N[C@H]1N=C(c2ccc(Cl)cc2)c2ccccc2N(C)C1=O [Comparative Compound 39, reference compound] :: ≤ 8 min
5. Cc1cccc2c1NC(=O)[C@@H](NC(=O)[C@H](CCC(F)(F)F)[C@@H](C(N)=O)c1ccccc1)N=C2c1cccc(F)c1 [Example 5] :: ≥ 30 min

Go through the items and report each one's half-life at 0.5 μM.
1. NC(=O)[C@@H](c1ccccc1)[C@@H](CCC(F)(F)F)C(=O)N[C@H]1N=C(c2cccc(F)c2)c2cccc(OC3CC3)c2NC1=O [Example 35]
2. COc1cccc2c1NC(=O)[C@@H](NC(=O)[C@H](CCC(F)(F)F)[C@@H](C(N)=O)c1ccc(Cl)cc1)N=C2c1ccccc1 [Example 36]
3. Cc1nocc1[C@H](C(N)=O)[C@@H](CCC(F)(F)F)C(=O)N[C@H]1N=C(c2ccccc2)c2ccccc2N(C)C1=O [Example 6]
4. Cc1cccc2c1NC(=O)[C@@H](NC(=O)[C@H](CCC(F)(F)F)[C@@H](C(N)=O)c1conc1C)N=C2c1cccc(C(F)(F)F)c1 [Example 28]
5. COc1cccc2c1NC(=O)[C@@H](NC(=O)[C@H](CCC(F)(F)F)[C@@H](C(N)=O)c1ccccc1)N=C2c1ccccc1 [Example 21]
6. COc1cccc2c1NC(=O)[C@@H](NC(=O)[C@H](CCC(F)(F)F)[C@@H](C(N)=O)c1conc1C)N=C2c1ccccc1 [Example 20]

1. ≥ 30 min
2. ≥ 30 min
3. ≥ 30 min
4. ≥ 30 min
5. ≥ 30 min
6. ≥ 30 min
